- TARGET: GRP receptor (Mus musculus)
- Construct: endogenous in cells
- Sequence (P21729 whole entry): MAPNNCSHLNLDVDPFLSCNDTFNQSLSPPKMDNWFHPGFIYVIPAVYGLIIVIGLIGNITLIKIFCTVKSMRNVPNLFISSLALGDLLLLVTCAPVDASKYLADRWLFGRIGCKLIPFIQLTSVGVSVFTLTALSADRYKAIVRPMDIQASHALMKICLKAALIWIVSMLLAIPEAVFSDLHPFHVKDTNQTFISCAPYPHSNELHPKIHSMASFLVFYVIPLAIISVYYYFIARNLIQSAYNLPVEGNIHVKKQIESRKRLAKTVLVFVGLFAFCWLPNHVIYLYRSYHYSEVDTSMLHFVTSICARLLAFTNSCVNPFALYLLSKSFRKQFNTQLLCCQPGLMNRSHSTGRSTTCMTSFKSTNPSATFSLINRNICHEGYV
- ASSAY INFO: Procedure A: Binding Inhibition Studies (competition with [3H-Phe15]GRP15-27)
- TEST CONDITIONS: Swiss 3T3 cells; 3 nM [3H-Phe15]GRP15-27; 60 minutes at 15° C.
Residues, ends and D or L forms follow the SMILES beside them. *: point of attachment. NH(2-Me-nonan-4R-yl) = CCCCC[C@H](CC(C)C)N*; NHCH(iBu)2 = CC(C)CC(CC(C)C)N*; X1 = CCCCC[C@@H](CC(C)C)N*; X2 = CCCC=C[C@H](CC(C)C)N*; Boc = CC(C)(C)OC(=O)*; Piv = CC(C)(C)C(=O)*; Ms = CS(=O)(=O)*
// reported pIC50 per item
Remember the convention: pIC50 equals -log10 of concentration in molar.

Example cases with answers are listed next.
MOLECULE	pIC50
CCCC=C[C@H](CC(C)C)NC(=O)[C@H](Cc1c[nH]cn1)NC(=O)CNC(=O)[C@@H](NC(=O)[C@H](C)NC(=O)[C@H](Cc1c[nH]c2ccccc12)NC(=O)[C@H](Cc1c[nH]cn1)NC(C)=O)C(C)C [2(S)] (Ac-HWAVGH-X2)	7.96
CC(=O)N[C@@H](Cc1c[nH]cn1)C(=O)N[C@@H](Cc1c[nH]c2ccccc12)C(=O)N[C@@H](C)C(=O)N[C@H](C(=O)NCC(=O)N[C@@H](Cc1c[nH]cn1)C(=O)NC(CC(C)C)CC(C)C)C(C)C [Example 6] (Ac-HWAVGH-{NHCH(iBu)2})	8.70
CCCCC[C@H](CC(C)C)NC(=O)[C@H](Cc1c[nH]cn1)NC(=O)CNC(=O)[C@@H](NC(=O)[C@H](C)NC(=O)[C@H](Cc1c[nH]c2ccccc12)NC(=O)[C@H](Cc1c[nH]cn1)NC(C)=O)C(C)C [1(R)] (Ac-HWAVGH-{NH(2-Me-nonan-4R-yl)})	8.70
CCCCC[C@H](CC(C)C)NC(=O)[C@H](Cc1c[nH]cn1)NC(=O)CNC(=O)[C@@H](NC(=O)[C@H](C)NC(=O)[C@H](Cc1c[nH]c2ccccc12)NC(=O)[C@H](Cc1c[nH]cn1)NS(C)(=O)=O)C(C)C [3(R)] (Ms-HWAVGH-{NH(2-Me-nonan-4R-yl)})	7.82

Ask | What value of pIC50 has been reported for the following molecule? CCCCC[C@@H](CC(C)C)NC(=O)[C@H](Cc1c[nH]cn1)NC(=O)CNC(=O)[C@@H](NC(=O)[C@H](C)NC(=O)[C@H](Cc1c[nH]c2ccccc12)NC(=O)[C@H](Cc1c[nH]cn1)NC(C)=O)C(C)C [1(S)] (Ac-HWAVGH-X1)
Reply | 7.77

Ask | What value of pIC50 has been reported for the following molecule? CCCCC[C@H](CC(C)C)NC(=O)[C@H](Cc1c[nH]cn1)NC(=O)CNC(=O)[C@@H](NC(=O)[C@H](C)NC(=O)[C@H](Cc1c[nH]c2ccccc12)NC(=O)[C@H](Cc1c[nH]cn1)NC(=O)C(C)(C)C)C(C)C [4(R)] (Piv-HWAVGH-{NH(2-Me-nonan-4R-yl)})
Reply | 8.52

Ask | What value of pIC50 has been reported for the following molecule? CCCCC[C@H](CC(C)C)NC(=O)[C@H](Cc1c[nH]cn1)NC(=O)CNC(=O)[C@@H](NC(=O)[C@H](C)NC(=O)[C@H](Cc1c[nH]c2ccccc12)NC(=O)[C@H](Cc1c[nH]cn1)NC(=O)OC(C)(C)C)C(C)C [5(R)] (Boc-HWAVGH-{NH(2-Me-nonan-4R-yl)})
Reply | 8.70
